Assay: Photodegradation of riboflavin preparations under UV irradiation (254/365 nm), first order kinetics
Format: physicochemical
Experimental setup: aqueous solution of free riboflavin under UV irradiation, aqueous solution, irradiation; read-out: half life of riboflavin in aqueous solution on irradiation
Readout name: half-life

What the record says about Cc1cc2nc3c(=O)[nH]c(=O)nc-3n(C[C@H](O)[C@H](O)[C@H](O)CO)c2cc1C [Riboflavin, riboflavin] : half-life is ~30 min
